Values were extracted from patent US20260295053A1.

Assignment: determine reported DC50 for the given molecules.
target: KRAS (G12D) (Homo sapiens, UniProt P01116, G12D); construct: in-cell western with KRAS G12D antibody after 24 h; experiment: KRAS (G12D) cellular degradation assay in AsPC-1 cells; format: cell-based; conditions: 24 hours, antibody fluorescence (Odyssey CLX), DC50 half-maximal degradation concentration
Sequence (P01116 1-188 isoform P01116-2 G12D): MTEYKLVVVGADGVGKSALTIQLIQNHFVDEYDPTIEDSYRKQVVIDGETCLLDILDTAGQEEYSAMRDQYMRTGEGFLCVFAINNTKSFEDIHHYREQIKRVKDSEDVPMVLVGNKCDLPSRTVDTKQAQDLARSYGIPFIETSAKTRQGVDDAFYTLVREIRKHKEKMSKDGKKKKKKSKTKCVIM

Hello, I would appreciate it if you could give DC50 for each entry below.
1. CO[C@@H](C)COc1nc(N2C[C@@H]3C[C@H]2CN3)c2cc(C3CC3)c(-c3c(C)c(F)cc4[nH]ncc34)c(OCc3ccc(-c4cn([C@H](C(=O)N5C[C@H](O)C[C@H]5C(=O)N[C@H](C#Cc5cccc(F)c5Cl)CO)C(C)C)nn4)cc3)c2n1
2. CO[C@@H](C)COc1nc(N2C[C@@H]3C[C@H]2CN3)c2cc(C3CC3)c(-c3c(C)c(F)cc4[nH]ncc34)c(OCc3ccc(-c4cn([C@H](C(=O)N5C[C@H](O)C[C@H]5C(=O)N[C@H](C#Cc5ccc6ncsc6c5)CO)C(C)C)nn4)cc3)c2n1

1. 10 to 100 nM
2. 10 to 100 nM

* * *

molecular target: KRAS (G12D) (Homo sapiens, UniProt P01116, G12D); construct: in-cell western with KRAS G12D antibody after 24 h; experiment: KRAS (G12D) cellular degradation assay in AsPC-1 cells; format: cell-based; details: 24 hours, antibody fluorescence (Odyssey CLX), DC50 half-maximal degradation concentration
I'd be grateful if you could share measured DC50 for these entries.

Recorded results for 3 compounds are shown here.
Compound	Observation type	Result
CCn1nccc1-c1ccc([C@@H](NC(=O)[C@@H]2C[C@@H](O)CN2C(=O)[C@H](C(C)C)n2cc(-c3ccc(COc4c(-c5c(C)c(F)cc6[nH]ncc56)c(C5CCC5)cc5c(N6C[C@@H]7C[C@H]6CN7)nc(OC[C@H](C)OC)nc45)cc3)nn2)[C@H](C)O)cc1	DC50	< 10 nM
CCn1nccc1-c1ccc(CNC(=O)[C@@H]2C[C@@H](O)CN2C(=O)[C@H](C(C)C)n2cc(-c3ccc(COc4c(-c5c(C)c(F)cc6[nH]ncc56)c(C5CC5)cc5c(N6C[C@H]7C[C@@H]6CN7)nc(OC[C@H](C)OC)nc45)cc3)nn2)cc1 (single isomer, unassigned) [Example 7A]	DC50	10 to 100 nM
Cc1ncsc1-c1ccc([C@@H](NC(=O)[C@@H]2C[C@@H](O)CN2C(=O)[C@H](C(C)C)n2cc(-c3ccc(COc4c(-c5c(C)c(F)cc6[nH]ncc56)c(C5CC5)cc5c(N6C[C@@H]7C[C@H]6CN7)nc(OC6CCOCC6)nc45)cc3)nn2)[C@H](C)O)cc1	DC50	< 10 nM

Give DC50 for all compounds that follow.
1. CO[C@@H](C)COc1nc(N(C)[C@@H]2CCNC2)c2cc(C3CC3)c(-c3c(C)c(F)cc4[nH]ncc34)c(OCc3ccc(-c4cn([C@H](C(=O)N5C[C@H](O)C[C@H]5C(=O)N[C@H](c5ccc(-c6scnc6C)cc5)[C@H](C)O)C(C)C)nn4)cc3)c2n1
2. CCn1nccc1-c1ccc([C@H](CO)NC(=O)[C@@H]2C[C@@H](O)CN2C(=O)[C@H](C(C)C)n2cc(-c3ccc(COc4c(-c5c(C)c(F)cc6[nH]ncc56)c(C5CC5)cc5c(N(C)C[C@H]6CCCN6)nc(OC[C@H](C)OC)nc45)cc3)nn2)cc1

["< 10 nM", "> 1000 nM"]

Quick batch: DC50 for everything below.
1. CCn1nccc1-c1ccc([C@H](CO)NC(=O)[C@@H]2C[C@@H](O)CN2C(=O)[C@H](C(C)C)n2cc(-c3ccc(COc4c(-c5c(C)c(F)c(F)c6[nH]ncc56)c(C5CCC5)cc5c(N6C[C@@H]7C[C@H]6CN7)nc(OC[C@H](C)OC)nc45)cc3)nn2)cc1
2. CO[C@@H](C)COc1nc(N(C)[C@H]2CCNC2)c2cc(C3CCC3)c(-c3c(C)c(F)cc4[nH]ncc34)c(OCc3ccc(-c4cn([C@H](C(=O)N5C[C@H](O)C[C@H]5C(=O)N[C@H](c5ccc(-c6scnc6C)cc5)C(C)O)C(C)C)nn4)cc3)c2n1 (stereo in doubt)

1: 10 to 100 nM; 2: < 10 nM
